test system: MCF7; assay: NCI tumour cell line growth inhibition, 48 h
Active and inactive are the calls of the source. No stated cut-off is given here; in the data, active = GI50 up to about 1.1 µM and inactive = higher.
Listed here are compounds together with their documented GI50.

Before answering, review these 2 worked examples.
COMPOUND: CCCCCCC(=O)OC[n+]1cccc(-c2c(COC(=O)NC(C)C)c(COC(=O)NC(C)C)c3n2CCC3)c1
GI50: 27.6 µM (inactive)
--
COMPOUND: CCO/C=N\c1c(C#N)c(-c2ccc(Cl)cc2)cn1-c1ccc(C)cc1
GI50: > 100 µM (inactive)

Task item: Requested read-out: GI50. Entry: `O=c1cc(-c2ccc(O)cc2)oc2cc(O[C@@H]3O[C@H](CO)[C@@H](O)[C@H](O)[C@H]3O)cc(O)c12`
Reply: > 100 µM (inactive)

Task item: Then what about the compound `COc1cc(C)c(S(=O)(=O)N(CCCN)OCCCN)c(C)c1C` ?
Reply: 19.4 µM (inactive)

Task item: Then what about the compound `Nc1nc2cc3nc(N)c(N)nc3cc2nc1N` ?
Reply: > 100 µM (inactive)

Task item: Then what about the compound `Cc1ccc(S(=O)(=O)OCCN(CCOS(=O)(=O)c2ccc(C)cc2)c2ccc(C=O)cc2)cc1` ?
Reply: 30.7 µM (inactive)

Task item: Then what about the compound `O=c1c2ccccc2nc2n1CCc1c-2[nH]c2cc3c(cc12)OCO3` ?
Reply: > 25 µM (inactive)

Task item: Then what about the compound `CN(C(=O)Cc1cccc(N=C=S)c1)[C@H]1CCCC[C@@H]1N1CCCC1` ?
Reply: 13 µM (inactive)

Task item: Then what about the compound `COc1cc2c(cc1O)NC(=O)[C@@H]1CCCN1C2=O` ?
Reply: > 100 µM (inactive)

###

Listed here are molecules together with their documented GI50.
tested on: SF-268; experiment: NCI tumour cell line growth inhibition, 48 h
The source made the active and inactive calls. No stated cut-off is given here; in the data, active = GI50 up to about 1.1 µM and inactive = higher. *1 amine or outer side, *2 acyl side, *3 side chain or, on linkers, in order; H or OH if unused. Where a SMILES comes first, the peptide text is derived from it. [ ]: non-standard residue; d: D form. The star is where a group is joined. ξ: configuration not given here. X53 = CC(C)C[C@H](N[*:1])C1=N[C@H](C(=O)[*:2])CS1; Ile(3ξ) = CCC(C)[C@H](N)C(=O)O; Allyl(1,1-Me2) = C=CC(C)(C)*

Task item: Requested read-out: GI50. Entry: C=CC(C)(C)OC[C@@H]1NC(=O)CNC(=O)[C@@H]2CCCN2C(=O)[C@H](C(C)CC)NC(=O)[C@@H]2CSC(=N2)[C@H](CC(C)C)NC1=O (stereo partly specified) (cyclo(GS(Allyl(1,1-Me2))[X53][Ile(3ξ)]P))
Reply: 68.4 µM (inactive)

Task item: Then what about the molecule `O=C1/C(=C\Oc2ccc(F)cc2)N2CCC1CC2` ?
Reply: 89.5 µM (inactive)

Task item: Then what about the molecule COC(=O)c1c2c(cc3c1CC1(Cc4ccccc4C1=O)C3)CCC2 (stereo unspecified) ?
Reply: 48.8 µM (inactive)

Task item: Then what about the molecule CC(=O)C(CN1CCCCC1)C(c1ccccc1)c1c(O)c2ccccc2oc1=O (stereo unspecified) ?
Reply: > 100 µM (inactive)

Task item: Then what about the molecule `C[C@H](N[C@H]1CCC[C@]1(O)C#Cc1ccc2c(c1)OCO2)c1ccccc1` ?
Reply: > 25 µM (inactive)

Task item: Then what about the molecule Cc1ccccc1C1CC(c2ccccc2)=NO1 (stereo unspecified) ?
Reply: > 100 µM (inactive)

Task item: Then what about the molecule `O=C1C=C(Nc2cccnc2)c2ccccc2C1=O` ?
Reply: 7.91 µM (inactive)

###

test system: U-251; assay: NCI tumour cell line growth inhibition, 48 h
The source made the active and inactive calls. Rule as the data show it: active = GI50 up to about 1.1 µM and inactive = higher.
Mark one answer only. Choices: active, inactive

MOLECULE: COc1c(Sc2c(SCSc3cnc4ccccc4c3Sc3cnc4ccccc4c3OC)cnc3ccccc23)cnc2ccccc12
CLASS: inactive

MOLECULE: COc1ccc(C(=O)/C=C/c2ccc(OCC(=O)O)cc2)cc1
CLASS: inactive

MOLECULE: NC(N)NCCCc1cn2c(n1)C1CCCN1C(=O)C2Cc1ccccc1 (stereo not given)
CLASS: inactive

MOLECULE: O=c1cc(NNc2ccccc2)[nH]c(=S)[nH]1
CLASS: inactive

MOLECULE: COC1CC(n2cc(F)c(N)nc2=O)OC1CO (stereo not given)
CLASS: inactive

Consider the record given below.
Task item: Which outcome was assigned to CC(=O)O[C@H]1CC[C@@]2(C)C(=CC[C@H]3C(CC#N)[C@@](C)(C#N)CCC32)C1 (stereo not given in full) in this test?
Reply: inactive

###

system: CCRF-CEM; assay: NCI tumour cell line growth inhibition, 48 h
Active and inactive are the calls of the source. Rule as the data show it: active = GI50 up to about 1.1 µM and inactive = higher.
Mark one answer only. Choices: class 1 for active, class 0 for inactive

COMPOUND: CCOC(=O)c1c(CN2CCCC2)n(-c2ccccc2)c2cc(Br)c(OC)cc12
CLASS: class 0
--
COMPOUND: CCN(C(=S)N[C@H](C(=O)N[C@@H](C)C(=O)OC)C(C)C)c1ccccc1
CLASS: class 0

Task item: Which outcome was assigned to `CC(C)(C)OC(=O)NC(C)(C)C(=O)NCCC(=O)O` in this test?
Reply: class 0

Task item: Then what about the compound O=C(Cc1ccccc1)N/N=C(/c1nc2ccc([N+](=O)[O-])cc2nc1O)C(O)c1ccc(C(O)/C(=N/NC(=O)Cc2ccccc2)c2nc3ccc([N+](=O)[O-])cc3nc2O)cc1 (stereo not given) ?
Reply: class 0

Task item: Then what about the compound `C/C(=N/NC(=S)N1CC2CCC(CC2)C1)c1cnccn1` ?
Reply: class 1

###

system: SF-295; assay: NCI tumour cell line growth inhibition, 48 h
Calls of active or inactive are those of the source. No stated cut-off is given here; in the data, active = GI50 up to about 1.1 µM and inactive = higher.
Mark one answer only. Choices: 1 (active), 0 (inactive)

COMPOUND: CCN(CCCl)c1cc(CN(C)C)cc(NC(=O)c2cc(C(=O)Nc3cc(CN(C)C)cc(N(CC)CCCl)c3)n(C)n2)c1
CLASS: 1
//
COMPOUND: O/N=C\c1cc(O)c(O)c(/C=N/O)c1
CLASS: 0

Consider the record given below.
Task item: Which outcome was assigned to `COc1cc(C(=O)NO)ccc1O` in this test?
Reply: 0

###

Listed here are compounds together with their documented GI50.
system: CAKI-1; test: NCI tumour cell line growth inhibition, 48 h
The source made the active and inactive calls. No stated cut-off is given here; in the data, active = GI50 up to about 1.1 µM and inactive = higher.

COMPOUND: Cc1ccc(S(=O)(=O)OCCN(CCOS(=O)(=O)c2ccc(C)cc2)c2ccc(C=O)cc2)cc1
TEST TARGET: CAKI-1
GI50: 21.1 µM (inactive)
--
COMPOUND: O=C(/C=C/c1ccc(Cl)cc1)c1ccncc1
TEST TARGET: CAKI-1
GI50: 30.8 µM (inactive)

Task item: Provide value of GI50 for this record tested with CAKI-1: Cc1ccc(C2=Nc3ccccc3[S+]([O-])C(c3ccc4c(c3)OCO4)C2)cc1 (stereo not given)
Reply: 24.5 µM (inactive)

Task item: Then what about the compound `CO[C@H]1SC[C@H](OC(C)=O)[C@H](OC(C)=O)[C@H]1OC(C)=O` ?
Reply: > 100 µM (inactive)

Task item: Then what about the compound `O=C1/C(=C/c2ccc(Cl)cc2)CSC/C1=C\c1ccc(Cl)cc1` ?
Reply: 4.06 µM (inactive)

###

system: NCI/ADR-RES; assay: NCI tumour cell line growth inhibition, 48 h
Calls of active or inactive are those of the source. Cut-off read from the data, not from the text of the source: active = GI50 up to about 1.1 µM and inactive = higher.
TEST READOUT: GI50

Before answering, review these 3 worked examples.
MOLECULE: NC(=S)C1=C(N)Oc2c(c(=O)oc3ccccc23)C1c1ccc(Br)cc1 (stereo not given)
GI50: > 100 µM (inactive)
//
MOLECULE: CNc1ncnc2c1cnn2Cc1cn(COCC(O)CO)nn1 (stereo not given)
GI50: > 100 µM (inactive)
//
MOLECULE: CN(C(=O)Cc1cccc(N=C=S)c1)[C@H]1CCCC[C@@H]1N1CCCC1
GI50: 24.8 µM (inactive)

Task item: Requested read-out: GI50. Entry: CC(=O)c1c(-c2ccc(Cl)cc2)c(C#N)c(=S)n(C2OC(CO)C(O)C(O)C2O)c1C (stereo not given)
Reply: > 100 µM (inactive)

Task item: Then what about the molecule `O=C1C=C(Nc2cccnc2)c2ccccc2C1=O` ?
Reply: 4.25 µM (inactive)

Task item: Then what about the molecule `O=C1/C(=C/c2ccc(O)cc2)CCc2ccccc21` ?
Reply: 12.7 µM (inactive)

Task item: Then what about the molecule C/C=C\C(CC(=O)NCC(=O)c1c[nH]c2ccccc12)CC(=O)OC (stereo not given) ?
Reply: > 100 µM (inactive)

Task item: Then what about the molecule `CC(C)(C)OC(=O)NC(C)(C)C(=O)NCCC(=O)O` ?
Reply: > 100 µM (inactive)

Task item: Then what about the molecule CN(C)C1C(O)=C(C(=O)NCN2CCCC2)C(=O)C2(O)C(O)=C3C(=O)c4c(O)cccc4C(C)(O)C3CC12 (stereo not given) ?
Reply: > 100 µM (inactive)

Task item: Then what about the molecule `COc1cc2c(cc1O)NC(=O)[C@@H]1CCCN1C2=O` ?
Reply: > 100 µM (inactive)

Reference for the values: ChEMBL document CHEMBL1201862
